pKd by entry:
# ASSAY SYSTEM: DLG4_3, P78352
# Sequence (P78352 306-403): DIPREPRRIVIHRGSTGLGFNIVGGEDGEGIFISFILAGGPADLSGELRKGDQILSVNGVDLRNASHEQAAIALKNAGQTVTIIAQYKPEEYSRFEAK
# TEST: holdup assay
# Design: key: below the threshold = too weak to quantify, mostly under pKd 3.1 to 4
# CONDITION LABEL: plain residues with an end cap or a label only (N-terminal biotin on a linker: ttds)
// response body must contain only the number

Some solved cases for reference:
- BINDER: "SHSSKGETAV [FZD7, O75084]"
  pKd: 4.02
- BINDER: "GARVSKETPL [MAPK12, P53778]"
  pKd: 4.03
- BINDER: "PPRQRSETQV [HPV82-E6, Q9IR59]"
  pKd: 4.43
- BINDER: "PSRDRKETSI [RALBP1, Q15311]"
  pKd: 4.87
- BINDER: "GRLLGLETNV [ARHGEF26, Q96DR7]"
  pKd: 3.8

Next, consider the following binder.
Exercise: Quick one: give measured pKd for QRPYRRESEI [KCNJ12, Q14500]
Key: 4.31
